Parameter: screen value. Scope: all listed entries.
B1: MBOAT1 peptide 17-32 (Lysophospholipid acyltransferase 1), 16-mer library wild type / NSP3 ADRP (ORF1ab Nsp3b ADRP, residues 1023-1192) (parent)
chain 1: STYLHPLSELLGIPLD
chain 2: not shown

Variants of: B1
Conditions: with NSP3 ADRP (ORF1ab Nsp3b ADRP, residues 1023-1192); bait immobilised on MaxiSorp plates (10 µg), library pre-cleared on GST, 2 h binding at 4 °C, five washes; one round per day, days 1-4; value from days 2 and 3; keep out of graded; scale: average fractional NGS count over selection days 2 and 3
# answer = number (no unit)

Data request, read-out screen value, for chain 1 P14G 0.000153

How about chain 1 L4V ? 0.000192

What do you have for chain 1 T2I ? 2.27e-05

The reported measurements were obtained from paper PMC12102759.
